In this section we review reported inhibition values for a set of compounds.
- TARGET ENTITY: Glycogen synthase kinase-3 beta (Homo sapiens) (UniProt P49841)
- Sequence (P49841 whole entry, looked up): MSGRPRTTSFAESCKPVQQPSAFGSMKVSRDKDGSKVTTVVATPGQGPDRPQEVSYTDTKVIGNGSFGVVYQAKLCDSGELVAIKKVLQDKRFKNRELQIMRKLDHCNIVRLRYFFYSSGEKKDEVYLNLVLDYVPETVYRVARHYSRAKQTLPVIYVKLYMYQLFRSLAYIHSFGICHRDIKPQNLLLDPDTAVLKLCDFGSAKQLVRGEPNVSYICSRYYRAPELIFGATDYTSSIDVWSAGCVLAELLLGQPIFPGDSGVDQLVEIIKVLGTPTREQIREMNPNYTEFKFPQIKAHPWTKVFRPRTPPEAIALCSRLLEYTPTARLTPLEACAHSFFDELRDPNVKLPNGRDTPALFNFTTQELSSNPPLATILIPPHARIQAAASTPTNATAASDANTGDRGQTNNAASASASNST
- PROTOCOL: Inhibition of GSK3-beta at 2 mM relative to control

{"SMILES STR": "CCC(CC)C(=O)O", "TARGET ENTITY": "Glycogen synthase kinase-3 beta (Homo sapiens) (UniProt P49841)", "UNITS TEXT": "%", "inhibition": 2.9}
{"SMILES STR": "CC/C=C(\\CCC)C(=O)O", "TARGET ENTITY": "Glycogen synthase kinase-3 beta (Homo sapiens) (UniProt P49841)", "UNITS TEXT": "%", "inhibition": 91.3}
{"SMILES STR": "O=C(O)CCCc1ccccc1", "TARGET ENTITY": "Glycogen synthase kinase-3 beta (Homo sapiens) (UniProt P49841)", "UNITS TEXT": "%", "inhibition": 126}
{"SMILES STR": "CCCC(CCC)C(=O)O", "TARGET ENTITY": "Glycogen synthase kinase-3 beta (Homo sapiens) (UniProt P49841)", "UNITS TEXT": "%", "inhibition": 65.2}
